# assay-name: GHS categories as the set defines them, by LD50: 1 up to 5, 2 up to 50, 3 up to 300, 4 up to 2000, 5 above 2000 mg/kg
# test-context: rat; in vivo; po
Would you kindly list GHS category for each of these molecules?
One number for each entry.

CC(C)(CO)c1cc(Cl)nnc1Cl | 4
Cc1cccc2ncc(C(=O)NCC(C)(C)C)c(=O)n12 | 3
N#CC1CCCC2OCC(c3ccccc3)N12 (configuration not stated) | 5

// for each molecule below, give its GHS category
1. CC(=O)N(C)C(=O)Oc1cccc2c1OC(C)(C)O2
2. CCCCCCCCOc1ccc(-c2ccc(C#N)cc2)cc1
3. CCN(CC)CCOC(=O)c1ccc(-n2c(C)nc3ccccc3c2=O)cc1
4. CCCCCCOCC(OC)OC

Response given:
1: 4; 2: 5; 3: 5; 4: 5

// for each molecule below, give its GHS category
1. COC(=O)c1ccc(N2CCC(c3ccc(Cl)cc3)=N2)cc1
2. CCCC(O)CCO (configuration not stated)
3. CCCCCCCN(CCCCCCC)CC(O)c1cc2ccccc2c2cc(Br)ccc12 (configuration not stated)
4. O=C(O)c1nc(C(Cl)(Cl)Cl)n(-c2ccc(Cl)cc2Cl)n1

Response given:
1: 5; 2: 5; 3: 5; 4: 5

Challenge: Entry `CCCc1c(Cc2ccc(-c3ccccc3-c3nn[nH]n3)cc2)c(N(CC)CC)nc2ncnn12` : reported GHS category = ?
Response given: 4

* * *

Would you kindly list GHS category for each of these molecules?
# assay-name: GHS categories as the set defines them, by LD50: 1 up to 5, 2 up to 50, 3 up to 300, 4 up to 2000, 5 above 2000 mg/kg
# test-context: rat; in vivo; po

Consider the reported GHS category for these molecules:
CC(C)Oc1ccc2c(c1)N(CCC1CCCCN1C)c1ccccc1S2 (stereo unspecified) | 5
O=C(O)CSCC(=O)NC1CCSC1=O (stereo unspecified) | 5
CCOC(=O)c1cnn(-c2ccccc2)c1N | 4

// for each molecule below, give its GHS category
1. Nc1cc(Cl)c(Cl)cc1S(=O)(=O)O
2. C=CC/C=C/C/C=C/C/C=C/C
3. Cn1c(=O)c2c([nH]c(=O)n2C)n(C)c1=O

Response given:
[5, 5, 5]

* * *

Would you kindly list log10 LD50 for each of these compounds?
# assay-name: rat acute oral toxicity
# test-context: in vivo
Record value = log10 of LD50 given in mg/kg.

Consider the reported log10 LD50 for these compounds:
CCCCN(CCCC)C(=O)N(CCCC)CCCC | 4.22
C=CCCCC=CCOC | 3.69
Cc1[nH]c(=O)n(C(C)(C)C)c(=O)c1Cl | 3.23
ClC=CCCl | 2.04
Cc1ccccc1C | 3.55

// for each compound below, give its log10 LD50
1. O=c1sc2ccccc2c(O)c1C1CC(c2ccc(-c3ccc(Br)cc3)cc2)Cc2ccccc21 (stereo not drawn)
2. CCC(=O)C(CC(C)N(C)C)(c1ccccc1)c1ccccc1 (stereo not drawn)
3. CCCCCCCCCC[N+](C)(C)CCCCCCCCCC

Response given:
[-0.26, 1.48, 1.92]

* * *

# assay-name: GHS categories as the set defines them, by LD50: 1 up to 5, 2 up to 50, 3 up to 300, 4 up to 2000, 5 above 2000 mg/kg
# test-context: rat; in vivo; po
Would you kindly list GHS category for each of these molecules?

Consider the reported GHS category for these molecules:
CCCc1nc2ncnn2c(N(CC)CC)c1Cc1ccc(-c2ccccc2-c2nn[nH]n2)cc1 | 4
CCCCCCCCCCCCCCCC | 5
CCCCCCCCCCCCCCCCCC(=O)NCCCCC(NC(=O)CCC(NC(=O)C(C)NC(=O)C(C)OC1C(O)C(CO)OC(O)C1NC(C)=O)C(N)=O)C(=O)O (stereo not given) | 4

// for each molecule below, give its GHS category
1. O=C1NC(=O)C(c2ccccc2)(c2ccccc2O)N1 (stereo not given)
2. CCOP(=S)(Oc1cnc(C(C)(C)C)nc1)OC(C)C (stereo not given)
3. CC(C)(C)c1ccc(OP(=O)(Oc2ccccc2)Oc2ccccc2)cc1
4. CCC(=O)OCC(=O)OC(C)C1CCCC(C)(C)C1 (stereo not given)
5. CC[C@H]1OC(=O)C[C@@H](O)[C@H](C)[C@@H](O[C@@H]2O[C@H](C)[C@@H](O[C@H]3C[C@@](C)(O)[C@@H](O)[C@H](C)O3)[C@H](N(C)C)[C@H]2O)[C@@H](CC=O)C[C@@H](C)C(=O)C=CC(C)=C[C@@H]1CO[C@@H]1O[C@H](C)[C@@H](O)[C@@H](OC)[C@H]1OC
6. O=S(O)CO

Response given:
5
1
5
5
5
5

// for each molecule below, give its GHS category
1. CC(C)NC(=O)N1CCc2nc(N=C(N)N)sc2C1
2. CN1CC(c2ccon2)CC2c3cccc4[nH]cc(c34)CC21 (stereo not given)

Response given:
1: 4; 2: 4
